Hi there, I'd appreciate the recorded Short-term stability RE% for every entry that follows.
- procedure_text: Stability of analytes in cell lysates (LC–MS/MS method validation)
- Format: physicochemical
- reported_conditions: 12 h at room temperature, high QC level, n=3
One number for each entry, in %.

As a guide, the following entries are already answered.
COc1cc2c(cc1O)CC[n+]1cc3c(OC)c(OC)ccc3cc1-2
8.0
COc1cc2c(cc1OC)-c1c(C)c3ccc(OC)c(OC)c3c[n+]1CC2 [DHC, dehydrocorydaline]
8.8
c1c2c(cc3c1OCO3)-c1cc3ccc4c(c3c[n+]1CC2)OCO4
6.2
COc1ccc2cc3[n+](cc2c1OC)CCc1cc2c(cc1-3)OCO2
2.5

Your task in this section: give Short-term stability RE% for each listed record.
1. CC(=O)O[C@@H]1C[C@H](O)[C@@]23CO[C@@H](O)[C@]1(C)[C@@H]2C[C@@H](O)[C@]1(C)[C@@H]3C(=O)[C@H](OC(C)=O)[C@@]2(C)[C@H](c3ccoc3)C[C@H]3O[C@]321
2. c1cc2c(c3c1CC1c4cc5c(cc4CCN1C3)OCO5)OCO2 (stereo not shown) [THC, tetrahydrocoptisine]
3. COc1cc2c(cc1OC)-c1cc3ccc(OC)c(OC)c3c[n+]1CC2

-0.1
4.6
2.5

---

- Test system: L-02 cells
- procedure_text: Intracellular accumulation in L-02 cells by LC–MS/MS
- Format: in vitro ADME, human
- reported_conditions: L-02, JLZS extracts 6.5 mg/mL, time 2 h, n = 6
Hi there, I'd appreciate the recorded Intracellular concentration for every entry that follows.
Numbers only, in ng/mL.

c1cc2c(c3c1CC1c4cc5c(cc4CCN1C3)OCO5)OCO2 (stereo not shown) [THC, tetrahydrocoptisine]
20.3

Your task in this section: give Intracellular concentration for each listed record.
1. COc1cc2c(cc1OC)-c1c(C)c3ccc(OC)c(OC)c3c[n+]1CC2 [DHC, dehydrocorydaline]
2. COc1cc2c(cc1O)CC[n+]1cc3c(OC)c(OC)ccc3cc1-2 [JAT, jatrorrhizine]
3. CC(=O)O[C@@H]1C[C@H](O)[C@@]23CO[C@@H](O)[C@]1(C)[C@@H]2C[C@@H](O)[C@]1(C)[C@@H]3C(=O)[C@H](OC(C)=O)[C@@]2(C)[C@H](c3ccoc3)C[C@H]3O[C@]321 [TSN, toosendanin]
4. COc1cc2c(cc1OC)-c1cc3ccc(OC)c(OC)c3c[n+]1CC2 [PAL, palmatine]
5. COc1ccc2cc3[n+](cc2c1OC)CCc1cc2c(cc1-3)OCO2 [BER, berberine]

[74.8, 16.3, 20.1, 49.4, 8.3]

Report Intracellular concentration from L-02 cells testing of c1c2c(cc3c1OCO3)-c1cc3ccc4c(c3c[n+]1CC2)OCO4 [COP, coptisine]
98.1

---

- procedure_text: Stability of analytes in cell lysates (LC–MS/MS method validation)
- Format: physicochemical
- reported_conditions: -80℃ for a month, high QC level, n=3
measured_parameter: Long-term stability RE%
Your answer should be a number followed by the unit of measure.

c1cc2c(c3c1CC1c4cc5c(cc4CCN1C3)OCO5)OCO2 (stereo not shown) [THC, tetrahydrocoptisine]
1.2%
COc1cc2c(cc1OC)-c1cc3ccc(OC)c(OC)c3c[n+]1CC2 [PAL, palmatine]
0.0%
COc1ccc2cc3[n+](cc2c1OC)CCc1cc2c(cc1-3)OCO2 [BER, berberine]
1.2%
COc1cc2c(cc1OC)-c1c(C)c3ccc(OC)c(OC)c3c[n+]1CC2 [DHC, dehydrocorydaline]
1.3%
CC(=O)O[C@@H]1C[C@H](O)[C@@]23CO[C@@H](O)[C@]1(C)[C@@H]2C[C@@H](O)[C@]1(C)[C@@H]3C(=O)[C@H](OC(C)=O)[C@@]2(C)[C@H](c3ccoc3)C[C@H]3O[C@]321 [TSN, toosendanin]
8.6%

Your task in this section: give Long-term stability RE% for each listed record.
1. COc1cc2c(cc1O)CC[n+]1cc3c(OC)c(OC)ccc3cc1-2 [JAT, jatrorrhizine]
2. c1c2c(cc3c1OCO3)-c1cc3ccc4c(c3c[n+]1CC2)OCO4 [COP, coptisine]

4.0%
6.6%
